Data credit: BindingDB's records for doi:10.1016/0196-9781(94)90118-x

Target: Somatostatin receptor type 3 (Rattus norvegicus)
Sequence (P30936 whole entry): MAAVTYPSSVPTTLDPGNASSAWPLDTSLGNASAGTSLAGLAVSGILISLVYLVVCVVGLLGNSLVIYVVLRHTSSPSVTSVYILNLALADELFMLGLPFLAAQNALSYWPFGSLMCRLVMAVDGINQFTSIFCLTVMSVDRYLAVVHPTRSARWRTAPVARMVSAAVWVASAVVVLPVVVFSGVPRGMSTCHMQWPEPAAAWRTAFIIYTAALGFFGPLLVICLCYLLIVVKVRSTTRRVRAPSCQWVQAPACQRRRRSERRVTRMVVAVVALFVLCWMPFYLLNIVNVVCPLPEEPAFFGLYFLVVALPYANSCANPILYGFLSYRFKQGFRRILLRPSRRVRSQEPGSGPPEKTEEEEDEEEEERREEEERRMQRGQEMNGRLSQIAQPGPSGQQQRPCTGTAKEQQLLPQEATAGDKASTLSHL
Positions of bridges follow the written chain, without caps; N, C: chain ends. Non-standard residues stand in square brackets, D forms with d. Residues, ends and D or L forms follow the SMILES beside them. 2Nal = N[C@@H](Cc1ccc2ccccc2c1)C(=O)O; d2Nal = N[C@H](Cc1ccc2ccccc2c1)C(=O)O; Abu = CC[C@H](N)C(=O)O
The compounds listed here are annotated with their pKi.
For clarity, pKi is expressed as the negative log10 of concentration in mol/L.

- compound: "CC(C)[C@H](NC(=O)[C@H](CCCCN)NC(=O)[C@@H](Cc1c[nH]c2ccccc12)NC(=O)[C@H](Cc1ccc(O)cc1)NC(=O)[C@H](Cc1ccccc1)NC(=O)[C@H](N)Cc1ccccc1)C(=O)N[C@@H](Cc1ccccc1)C(=O)N[C@H](C(N)=O)[C@@H](C)O [D-Phe-Phe-Tyr-D-Trp-Lys-Val-Phe-Thr-NH2] (H-[dF]FY[dW]KVFT-NH2)"
  recorded.measurement: 10.52
- compound: "CC(C)[C@@H]1NC(=O)[C@H](CCCCN)NC(=O)[C@@H](Cc2c[nH]c3ccccc23)NC(=O)[C@H](Cc2ccc(O)cc2)NC(=O)[C@@H](NC(=O)[C@H](N)Cc2ccc3ccccc3c2)CSSC[C@@H](C(=O)N[C@H](C(N)=O)[C@@H](C)O)NC1=O [D-Nal-Cys-Tyr-D-Trp-Lys-Val-Cys-Thr-NH2]"
  recorded.measurement: 8.31
- compound: "C[C@@H](O)[C@H](NC(=O)[C@H](Cc1ccccc1)NC(=O)[C@@H](NC(=O)[C@H](CCCCN)NC(=O)[C@@H](Cc1c[nH]c2ccccc12)NC(=O)[C@H](Cc1ccccc1)NC(=O)[C@H](Cc1ccccc1)NC(=O)[C@H](N)Cc1ccccc1)[C@@H](C)O)C(N)=O [CAS_133073-82-2] (H-[dF]FF[dW]KTFT-NH2)"
  recorded.measurement: 9.38
- compound: "CC[C@@H]1NC(=O)[C@H](CCCCN)NC(=O)[C@@H](Cc2c[nH]c3ccccc23)NC(=O)[C@H](Cc2ccc(O)cc2)NC(=O)[C@@H](NC(=O)[C@H](N)Cc2ccccc2)CSSC[C@@H](C(=O)N[C@@H](Cc2ccc3ccccc3c2)C(N)=O)NC1=O [D-Phe-Cys-Tyr-D-Trp-Lys-Abu-Cys-Nal-NH] (H-[dF]CY[dW]K[Abu]C[2Nal]-NH2; disulfide 2-7)"
  recorded.measurement: 7.96

Challenge: Quick one: pKi of CC(C)[C@H](NC(=O)[C@H](CCCCN)NC(=O)[C@@H](Cc1c[nH]c2ccccc12)NC(=O)[C@H](Cc1ccc(O)cc1)NC(=O)[C@H](Cc1ccccc1)NC(=O)[C@H](N)Cc1ccccc1)C(=O)N[C@@H](Cc1ccccc1)C(=O)N[C@H](Cc1ccc2ccccc2c1)C(N)=O [CAS_150155-61-6] (H-[dF]FY[dW]KVF[d2Nal]-NH2) ?
Response given: 10.70

====

Positions of bridges follow the written chain, without caps; N, C: chain ends. Non-standard residues stand in square brackets, D forms with d. Residues, ends and D or L forms follow the SMILES beside them. 2Nal = N[C@@H](Cc1ccc2ccccc2c1)C(=O)O; d2Nal = N[C@H](Cc1ccc2ccccc2c1)C(=O)O; Abu = CC[C@H](N)C(=O)O
Assay system Somatostatin receptor type 2 (Rattus norvegicus); read-out recorded as Ki.
Entry rule: numbers only, all in nM.

- molecule: "CC(C)[C@H](NC(=O)[C@H](CCCCN)NC(=O)[C@@H](Cc1c[nH]c2ccccc12)NC(=O)[C@H](Cc1ccc(O)cc1)NC(=O)[C@H](Cc1ccccc1)NC(=O)[C@H](N)Cc1ccccc1)C(=O)N[C@@H](Cc1ccccc1)C(=O)N[C@H](C(N)=O)[C@@H](C)O [D-Phe-Phe-Tyr-D-Trp-Lys-Val-Phe-Thr-NH2] (H-[dF]FY[dW]KVFT-NH2)"
  recorded.measurement: 46

Challenge: Quick one: Ki of CC[C@@H]1NC(=O)[C@H](CCCCN)NC(=O)[C@@H](Cc2c[nH]c3ccccc23)NC(=O)[C@H](Cc2ccc(O)cc2)NC(=O)[C@@H](NC(=O)[C@H](N)Cc2ccccc2)CSSC[C@@H](C(=O)N[C@@H](Cc2ccc3ccccc3c2)C(N)=O)NC1=O [D-Phe-Cys-Tyr-D-Trp-Lys-Abu-Cys-Nal-NH] (H-[dF]CY[dW]K[Abu]C[2Nal]-NH2; disulfide 2-7) ?
Response given: 0.01

Challenge: // repeat for C[C@@H](O)[C@H](NC(=O)[C@H](Cc1ccccc1)NC(=O)[C@@H](NC(=O)[C@H](CCCCN)NC(=O)[C@@H](Cc1c[nH]c2ccccc12)NC(=O)[C@H](Cc1ccccc1)NC(=O)[C@H](Cc1ccccc1)NC(=O)[C@H](N)Cc1ccccc1)[C@@H](C)O)C(N)=O [CAS_133073-82-2] (H-[dF]FF[dW]KTFT-NH2) and report
Response given: 32

Challenge: // repeat for CC(C)[C@@H]1NC(=O)[C@H](CCCCN)NC(=O)[C@@H](Cc2c[nH]c3ccccc23)NC(=O)[C@H](Cc2ccc(O)cc2)NC(=O)[C@@H](NC(=O)[C@H](N)Cc2ccc3ccccc3c2)CSSC[C@@H](C(=O)N[C@H](C(N)=O)[C@@H](C)O)NC1=O and report
Response given: 1.6

Challenge: // repeat for CC(C)[C@H](NC(=O)[C@H](CCCCN)NC(=O)[C@@H](Cc1c[nH]c2ccccc12)NC(=O)[C@H](Cc1ccc(O)cc1)NC(=O)[C@H](Cc1ccccc1)NC(=O)[C@H](N)Cc1ccccc1)C(=O)N[C@@H](Cc1ccccc1)C(=O)N[C@H](Cc1ccc2ccccc2c1)C(N)=O [CAS_150155-61-6] (H-[dF]FY[dW]KVF[d2Nal]-NH2) and report
Response given: 1000
